# PROCEDURE SUMMARY: PK profile of HBI-2375 in plasma, brain and CSF in SD rats
# Type: in vivo
# ASSAY CONDITIONS: both sexes, rat; SD rats, single PO 40 mg/kg, brain, mean of male and female
MEASUREMENT LABEL: Cmax (ng/g)
// return numeric value only (unit: ng/g, not printed)

May I ask what Cmax has been recorded for Cc1c(F)c(N)cc(C(=O)Nc2cc(-n3cc(C(=O)N4CCN(C)CC4)nn3)c(F)cc2N2C[C@@H](C)N(C)[C@@H](C)C2)c1Cl [HYBI-084] ?
623

----------
# PROCEDURE SUMMARY: Liver S9 stability assay
# Type: in vitro ADME, mouse
# ASSAY CONDITIONS: Mouse liver S9
Below is a list of entries, each paired with its recorded microsomal CLint at 1 μM value.

Here is how some compounds turned out for microsomal CLint at 1 μM.
1. C[C@H]1CN(c2cc(F)c(-c3cnc(N4CCOCC4)nc3)cc2Nc2ncnc(Cl)c2N)CCN1C = < 4.8 µL/min/mg
2. CCN(CC)C(=O)c1cn(-c2cc(NC(=O)c3cc(N)c(F)c(C)c3Cl)c(N3C[C@@H](C)N(C)[C@@H](C)C3)cc2F)nn1 = < 4.8 µL/min/mg
3. Cc1c(F)c(N)cc(C(=O)Nc2cc(-n3cc(C(=O)N4CCN(C)CC4)nn3)c(F)cc2N2C[C@@H](C)N(C)[C@@H](C)C2)c1Cl = < 4.8 µL/min/mg

Next up:
May I ask what microsomal CLint at 1 μM has been recorded for `C[C@@H]1CN(c2ncc(-c3cc(Nc4ncnc(Cl)c4N)c(N4CCN(C)[C@@H](C)C4)cc3F)cn2)C[C@H](C)O1` ?
5.5 µL/min/mg

----------
# PROCEDURE SUMMARY: PK profile of HBI-2375 in plasma, brain and CSF in SD rats
# Format: in vivo
# ASSAY CONDITIONS: Sprague-Dawley, rat; SD rats, single PO 40 mg/kg, plasma, male
MEASUREMENT LABEL: AUC(0-t) (ng·h/mL)
// return numeric value only (unit: ng·h/mL, not printed)

May I ask what AUC(0-t) has been recorded for `Cc1c(F)c(N)cc(C(=O)Nc2cc(-n3cc(C(=O)N4CCN(C)CC4)nn3)c(F)cc2N2C[C@@H](C)N(C)[C@@H](C)C2)c1Cl` ?
1680

----------
# PROCEDURE SUMMARY: PK profile of HBI-2375 in plasma and brain in C57BL/6J mice
# Assay type: in vivo
# ASSAY CONDITIONS: mouse; C57BL/6J mice, single PO 80 mg/kg, brain, male
MEASUREMENT LABEL: Tmax (h)
// return numeric value only (unit: h, not printed)

May I ask what Tmax has been recorded for `Cc1c(F)c(N)cc(C(=O)Nc2cc(-n3cc(C(=O)N4CCN(C)CC4)nn3)c(F)cc2N2C[C@@H](C)N(C)[C@@H](C)C2)c1Cl` ?
4

----------
# PROCEDURE SUMMARY: PK profile of HBI-2375 in plasma and brain in C57BL/6J mice
# Assay type: in vivo
# ASSAY CONDITIONS: mouse; C57BL/6J mice, single PO 40 mg/kg, plasma, female
MEASUREMENT LABEL: Cmax (ng/mL)
// return numeric value only (unit: ng/mL, not printed)

May I ask what Cmax has been recorded for `Cc1c(F)c(N)cc(C(=O)Nc2cc(-n3cc(C(=O)N4CCN(C)CC4)nn3)c(F)cc2N2C[C@@H](C)N(C)[C@@H](C)C2)c1Cl` ?
1120
